# testedSystem: UniProt P13569
# Sequence (P13569 with tags, fused parts or gaps DEL508-508): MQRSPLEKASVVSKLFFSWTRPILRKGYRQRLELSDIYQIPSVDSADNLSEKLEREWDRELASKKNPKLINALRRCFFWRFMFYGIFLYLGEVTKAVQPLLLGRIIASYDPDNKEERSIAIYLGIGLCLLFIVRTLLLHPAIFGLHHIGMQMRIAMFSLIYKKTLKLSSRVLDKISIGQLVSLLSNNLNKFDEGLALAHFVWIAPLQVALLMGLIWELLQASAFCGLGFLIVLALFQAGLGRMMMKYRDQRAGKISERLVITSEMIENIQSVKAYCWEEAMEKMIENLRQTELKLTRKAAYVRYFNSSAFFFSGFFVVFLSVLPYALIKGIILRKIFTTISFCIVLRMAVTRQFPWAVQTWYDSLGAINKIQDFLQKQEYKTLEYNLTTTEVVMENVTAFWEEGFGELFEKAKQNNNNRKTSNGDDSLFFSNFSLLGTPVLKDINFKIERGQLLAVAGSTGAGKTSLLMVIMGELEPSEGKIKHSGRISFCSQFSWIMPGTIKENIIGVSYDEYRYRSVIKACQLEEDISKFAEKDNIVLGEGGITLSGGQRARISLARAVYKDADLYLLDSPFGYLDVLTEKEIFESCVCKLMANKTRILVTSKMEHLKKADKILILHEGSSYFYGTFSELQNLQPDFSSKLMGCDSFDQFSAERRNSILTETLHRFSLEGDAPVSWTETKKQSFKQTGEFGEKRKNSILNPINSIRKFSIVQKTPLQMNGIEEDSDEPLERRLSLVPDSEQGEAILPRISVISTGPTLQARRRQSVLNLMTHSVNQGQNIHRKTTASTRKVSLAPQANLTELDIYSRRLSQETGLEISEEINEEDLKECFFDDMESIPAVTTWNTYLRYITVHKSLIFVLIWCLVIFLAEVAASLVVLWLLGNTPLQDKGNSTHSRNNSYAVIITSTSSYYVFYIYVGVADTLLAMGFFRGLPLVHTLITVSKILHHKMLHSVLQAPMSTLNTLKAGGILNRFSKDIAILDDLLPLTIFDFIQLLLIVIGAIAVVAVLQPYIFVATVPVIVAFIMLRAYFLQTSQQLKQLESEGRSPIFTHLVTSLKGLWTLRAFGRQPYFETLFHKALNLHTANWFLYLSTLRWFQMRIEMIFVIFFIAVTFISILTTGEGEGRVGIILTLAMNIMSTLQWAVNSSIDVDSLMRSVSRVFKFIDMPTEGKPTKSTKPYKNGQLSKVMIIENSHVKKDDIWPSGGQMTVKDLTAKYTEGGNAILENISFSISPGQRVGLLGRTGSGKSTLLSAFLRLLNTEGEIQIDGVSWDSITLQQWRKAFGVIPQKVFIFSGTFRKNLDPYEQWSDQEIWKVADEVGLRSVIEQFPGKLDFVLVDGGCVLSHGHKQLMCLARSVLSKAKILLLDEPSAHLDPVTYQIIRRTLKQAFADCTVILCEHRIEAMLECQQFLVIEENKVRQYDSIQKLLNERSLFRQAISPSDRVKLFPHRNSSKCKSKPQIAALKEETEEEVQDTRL
# assaySummary: Membrane potential dye, Enteroid Assay A
# Assay type: cell-based
# conditionNotes: Table 7; human enteroid cells, 18-24 hours; acute 10 μM forskolin and 300 nM ivacaftor; read-out: Ent. A EC50
readoutLabel: EC50

Look over these answered cases.
{"columns": ["compound", "testedSystem", "EC50"],
 "data": [
  ["Cc1cccc(C)c1-c1cc2nc(n1)NS(=O)(=O)c1cccc(c1)C(=O)N(Cc1ccc(N3CCC4(CCC4)CC3)nc1)[C@H](CC(C)C)CO2", "UniProt P13569", "< 1000 nM"],
  ["Cc1cccc(C)c1-c1cc2nc(n1)NS(=O)(=O)c1cccc(c1)C(=O)N(Cc1ccc(C3=CCN(C)CC3)nc1)[C@H](CC(C)C)CO2", "UniProt P13569", "< 1000 nM"]
]}

Batch request: EC50 for each of the following compounds.
1. COc1ccc(CN2C(=O)c3cccc(c3)S(=O)(=O)Nc3nc(cc(-c4c(C)cccc4C)n3)OC[C@H]2C)cc1
2. Cc1cccc(C)c1-c1cc2nc(n1)NS(=O)(=O)c1cccc(c1)C(=O)N(CCC(C)(C)C)[C@H](CC(F)(F)F)CO2 [Compound 985]
3. COC(=O)c1ccc(CN2C(=O)c3cccc(c3)S(=O)(=O)Nc3nc(cc(-c4c(C)cccc4C)n3)OC[C@H]2CC(C)C)cn1
4. COCCCCN1C(=O)c2cccc(c2)S(=O)(=O)Nc2nc(cc(-c3c(C)cccc3C)n2)OC[C@H]1CC(C)C

1000 to 3000 nM
< 1000 nM
< 1000 nM
< 1000 nM
